- METHOD DESCRIPTION: Intratumoral drug concentration and distribution by MALDI-MSI in C38 tumors
- Format: in vivo, mouse
- CONDITION: 100 mg/kg p.o. for two weeks
REPORTED PROPERTY: intratumoral drug distribution (MALDI-MSI)

Completed entries (count: 4):
>>> print(df.to_string())
                                   compound          reported
0  CCN(CC)CCNC(=O)c1c(C)[nH]c(/C=C2\C(=O)Nc3ccc(F)cc32)c1C [sunitinib]  well-distributed
1  CC1(C)CNc2cc(NC(=O)c3cccnc3NCc3ccncc3)ccc21 [motesanib]       trace-level
2  Clc1ccc(Nc2nnc(Cc3ccncc3)c3ccccc23)cc1 [vatalanib]  well-distributed
3  Cc1ccc(Nc2nccc(N(C)c3ccc4c(C)n(C)nc4c3)n2)cc1S(N)(=O)=O [pazopanib]       trace-level

Next up:
Input CNC(=O)c1cc(Oc2ccc(NC(=O)Nc3ccc(Cl)c(C(F)(F)F)c3)cc2)ccn1 [sorafenib] . Output intratumoral drug distribution (MALDI-MSI): trace-level
